# assayed-system: recombinant human CD3ε/δ heterodimer (human) (UniProt P07766)
# Sequence (P07766 23-126, stated change not applied, chain 1 of 2): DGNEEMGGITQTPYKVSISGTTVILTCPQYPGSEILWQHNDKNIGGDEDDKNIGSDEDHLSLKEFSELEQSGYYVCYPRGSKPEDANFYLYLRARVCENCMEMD
# Sequence (P04234 22-105, stated change not applied, chain 2 of 2, further chain): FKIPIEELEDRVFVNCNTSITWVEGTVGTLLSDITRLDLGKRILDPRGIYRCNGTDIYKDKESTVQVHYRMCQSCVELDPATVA
# procedure-details: ELISA, coated CD3ε/δ
experimental-readout: Absorbance (450 nm)

Any idea what its Absorbance (450 nm) is? The binder is A13 (antibody, human IgG1, lambda, L234A L235A, V domains shown) VH: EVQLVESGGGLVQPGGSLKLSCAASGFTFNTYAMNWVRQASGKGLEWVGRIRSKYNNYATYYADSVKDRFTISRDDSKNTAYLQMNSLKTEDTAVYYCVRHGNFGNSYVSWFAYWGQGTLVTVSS VL: QAVVTQEPSLTVSPGGTVTLTCRSSTGAVTTSNYANWVQQKPGQAPRGLIYGTNKRAPWTPARFSGSLLGGKAALTLSGAQPEDEAEYYCALWYSNLWVFGGGTKLTVLG 0.172

Any idea what its Absorbance (450 nm) is? The binder is H01 (antibody, human IgG1, lambda, L234A L235A, V domains shown) VH: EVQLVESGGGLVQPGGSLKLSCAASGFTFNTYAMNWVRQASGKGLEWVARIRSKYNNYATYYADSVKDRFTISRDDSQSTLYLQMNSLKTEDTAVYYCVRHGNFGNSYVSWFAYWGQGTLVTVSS VL: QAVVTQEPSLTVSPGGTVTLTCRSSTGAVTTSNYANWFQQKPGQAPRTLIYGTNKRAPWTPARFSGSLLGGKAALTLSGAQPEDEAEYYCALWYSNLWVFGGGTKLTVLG 0.121

From: patent US20200317779A1
